Hello, the source for this data is ChEMBL document CHEMBL3286215, in case you need it.

# target of assay: Acetylcholinesterase (Torpedo californica, UniProt P04058)
# Sequence (P04058 whole entry): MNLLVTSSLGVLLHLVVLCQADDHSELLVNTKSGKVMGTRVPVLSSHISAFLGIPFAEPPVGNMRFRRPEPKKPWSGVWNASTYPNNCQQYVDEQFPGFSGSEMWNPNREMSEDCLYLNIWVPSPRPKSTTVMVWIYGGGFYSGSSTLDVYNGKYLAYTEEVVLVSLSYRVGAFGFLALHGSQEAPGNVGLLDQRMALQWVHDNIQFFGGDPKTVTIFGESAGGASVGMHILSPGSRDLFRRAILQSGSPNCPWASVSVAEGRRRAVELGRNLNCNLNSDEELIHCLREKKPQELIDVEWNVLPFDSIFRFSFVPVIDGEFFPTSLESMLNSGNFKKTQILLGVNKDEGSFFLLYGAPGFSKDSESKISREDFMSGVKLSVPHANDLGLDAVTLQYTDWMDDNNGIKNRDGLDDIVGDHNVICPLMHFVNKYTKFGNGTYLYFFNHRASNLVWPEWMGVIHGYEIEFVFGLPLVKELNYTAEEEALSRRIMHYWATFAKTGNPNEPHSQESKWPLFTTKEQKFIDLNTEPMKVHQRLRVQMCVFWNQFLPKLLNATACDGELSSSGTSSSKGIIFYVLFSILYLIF
measured property: IC50

Previously resolved entries follow.
# sample smiles, reading
measured = [
    ("C=C(C=O)[C@@H]1CC[C@]2(C)C(=O)C[C@]3(C)[C@H](CC[C@@H]4[C@@]5(C)CCC(=O)C(C)(C)[C@@H]5CC[C@]43C)[C@@H]12", "> 200 µM"),
    ("CC1(C)[C@@H](O)CC[C@]2(C)[C@H]3CC[C@@H]4[C@H]5[C@H]([C@@]6(C)CO6)CC[C@]5(C)[C@@H](O)C[C@@]4(C)[C@]3(C)CC[C@@H]12", "> 200 µM"),
]

Lookup: # get_value(readout= IC50, system= Acetylcholinesterase (Torpedo californica, UniProt P04058)) for C=C(COS(=O)(=O)O)[C@@H]1CC[C@@]2(C)[C@H]1[C@H]1CC[C@@H]3[C@@]4(C)CC[C@H](OS(=O)(=O)O)C(C)(C)[C@@H]4CC[C@@]3(C)[C@]1(C)C[C@@H]2OS(=O)(=O)O
Found: > 200 µM

Lookup: # get_value(readout= IC50, system= Acetylcholinesterase (Torpedo californica, UniProt P04058)) for CC(C)[C@@H]1CC[C@@]2(C)[C@H]1[C@H]1CC[C@@H]3[C@@]4(C)CC[C@H](OS(=O)(=O)O)C(C)(C)[C@@H]4CC[C@@]3(C)[C@]1(C)C[C@@H]2OS(=O)(=O)O
Found: 58.8 µM

Lookup: # get_value(readout= IC50, system= Acetylcholinesterase (Torpedo californica, UniProt P04058)) for C=C(CO)[C@@H]1CC[C@@]2(C)[C@H]1[C@H]1CC[C@@H]3[C@@]4(C)CC[C@H](O)C(C)(C)[C@@H]4CC[C@@]3(C)[C@]1(C)C[C@@H]2O
Found: > 200 µM

---

# target of assay: Acetylcholinesterase (Torpedo californica)
# test summary: Inhibition of Pacific electric ray AChE using acetylthiocholine iodide as substrate at 200 uM after 60 mins by Ellman's method relative to control
# settings: Tetronarce californica
Below is a list of entries, each paired with its recorded inhibition value.

Lookup: Bench note: what inhibition did C=C(C=O)[C@@H]1CC[C@@]2(C)[C@H]1[C@H]1CC[C@@H]3[C@@]4(C)CC[C@H](OS(=O)(=O)O)C(C)(C)[C@@H]4CC[C@@]3(C)[C@]1(C)C[C@@H]2OS(=O)(=O)O show?
Found: 6.1%

Lookup: Bench note: what inhibition did C=C(C)[C@@H]1CC[C@@]2(C)[C@H]1[C@H]1CC[C@H]3[C@@]4(C)CC[C@H](O)C(C)(C)[C@@H]4CC[C@@]3(C)[C@]1(C)C[C@@H]2O show?
Found: 8.1%

Lookup: Bench note: what inhibition did C=C(C)[C@@H]1CC[C@@]2(C)[C@H]1[C@H]1CC[C@@H]3[C@@]4(C)CC[C@H](O)C(C)(C)[C@@H]4CC[C@@]3(C)[C@]1(C)C[C@@H]2OC(C)=O show?
Found: 5.6%

Lookup: Bench note: what inhibition did C=C(CO)[C@@H]1CC[C@@]2(C)[C@H]1[C@H]1CC[C@@H]3[C@@]4(C)CC[C@H](O)C(C)(C)[C@@H]4CC[C@@]3(C)[C@]1(C)C[C@@H]2O show?
Found: 40.4%

---

pIC50: −log10 of the molar value.
Target or system Acetylcholinesterase (Torpedo californica, UniProt P04058); recorded quantity pIC50.

Previously resolved entries follow.
# sample smiles, pIC50
data = [
    ("C=C(C)[C@@H]1CC[C@@]2(C)[C@H]1[C@H]1CC[C@@H]3[C@@]4(C)CC[C@H](OS(=O)(=O)O)C(C)(C)[C@@H]4CC[C@@]3(C)[C@]1(C)C[C@@H]2OS(=O)(=O)O", 3.72),
    ("C=C(C=O)[C@@H]1CC[C@@]2(C)[C@H]1[C@H]1CC[C@@H]3[C@@]4(C)CC[C@H](O)C(C)(C)[C@@H]4CC[C@@]3(C)[C@]1(C)C[C@@H]2O", "< 3.70"),
    ("C=C(CO)[C@@H]1CC[C@@]2(C)[C@H]1[C@H]1CC[C@@H]3[C@@]4(C)CC[C@H](OS(=O)(=O)O)C(C)(C)[C@@H]4CC[C@@]3(C)[C@]1(C)C[C@@H]2OS(=O)(=O)O", "< 3.70"),
]

Lookup: Bench note: what pIC50 did C=C(C)[C@@H]1CC[C@@]2(C)[C@H]1[C@H]1CC[C@@H]3[C@@]4(C)CC[C@H](OC(=O)CCCCC(=O)O)C(C)(C)[C@@H]4CC[C@@]3(C)[C@]1(C)C[C@@H]2OC(=O)CCCCC(=O)O show?
Found: < 3.70

---

# test summary: Selectivity index, ratio of IC50 for Pacific electric ray AChE to IC50 for BChE in horse serum
Below is a list of entries, each paired with its recorded Ratio IC50 value.

# sample smiles, Ratio IC50
rows = [
    ("C=C(C=O)[C@@H]1CC[C@]2(C)C(=O)C[C@]3(C)[C@H](CC[C@@H]4[C@@]5(C)CCC(=O)C(C)(C)[C@@H]5CC[C@]43C)[C@@H]12", "> 9.3"),
    ("C=C(CO)[C@@H]1CC[C@@]2(C)[C@H]1[C@H]1CC[C@@H]3[C@@]4(C)CC[C@H](OS(=O)(=O)O)C(C)(C)[C@@H]4CC[C@@]3(C)[C@]1(C)C[C@@H]2OS(=O)(=O)O", "> 1.7"),
]

Next molecule, Ratio IC50 to be filled in.
Lookup: Bench note: what Ratio IC50 did C=C(C)[C@@H]1CC[C@@]2(C)[C@H]1[C@H]1CC[C@@H]3[C@@]4(C)CC[C@H](OC(=O)CCCCC(=O)O)C(C)(C)[C@@H]4CC[C@@]3(C)[C@]1(C)C[C@@H]2OC(=O)CCCCC(=O)O show?
Found: > 2.48
